Measured IC50 (hCA-IX (Homo sapiens, UniProt Q16790))
Numeric only. Scale: nM

The examples below pair each entry with its known result.
NS(=O)(=O)c1ccc(-c2ccc(Nc3ccc(F)c(Cl)c3)cc2)cc1: 3430
NS(=O)(=O)c1ccc(-c2ccc(Nc3ccc(Cl)cc3)cc2)cc1: 2790

Could you now consider this next compound?
Prompt line: Can you look up the measured IC50 of COC(=O)c1ccc(Nc2ccc(-c3ccc(S(N)(=O)=O)cc3)cc2)cc1 for me?
Response line: 1460

---

Measured IC50 (hCA-XII (Homo sapiens, UniProt O43570))
Numeric only. Scale: µM

Prompt line: Find the measured IC50: item NS(=O)(=O)c1ccc(-c2ccc(Nc3ccc(Cl)cc3)cc2)cc1 , target or system hCA-XII (Homo sapiens, UniProt O43570).
Response line: 1.05

Prompt line: Find the measured IC50: item COC(=O)c1ccc(Nc2ccc(-c3ccc(S(N)(=O)=O)cc3)cc2)cc1 , target or system hCA-XII (Homo sapiens, UniProt O43570).
Response line: 0.69

---

Measured pIC50 (hCA-II (Homo sapiens, UniProt P00918))
Worth noting: pIC50 values are minus log10 of concentrations stated in mol/L.

NS(=O)(=O)c1ccc(-c2ccc(Nc3ccncc3)cc2)cc1: 6.00

Prompt line: Find the measured pIC50: item COC(=O)c1ccc(Nc2ccc(-c3ccc(S(N)(=O)=O)cc3)cc2)cc1 , target or system hCA-II (Homo sapiens, UniProt P00918).
Response line: 5.99
